Numbers sourced from patent US8691864B2.

System: SH-SY-5Y Cells
method summary: MTS toxicity assay in SHSY5Y cells
Assay type: cell-based, human
run parameters: Dose 20 uM
Listed next: entries and their corresponding APP Toxicity SH-SY-5Y Cells (MTS assay).
measurement type: APP Toxicity SH-SY-5Y Cells (MTS assay) (% vehicle control)

> print(dat)
                                    compound        result.unit  measured.value
 1  Cc1cc2c(cc1O)[C@]1(C)CCN(C)C1N2C (stereo partly drawn) [MES 9267]  % vehicle control           15.52
 2  CN(C)Cc1cc2c(cc1O)[C@]1(C)CCN(C)C1N2C (stereo partly drawn) [MES 9266]  % vehicle control           94.15
 3  COc1ccc2c(c1)[C@@](C)(CC[N+](C)(C)C)C(O)N2Cc1ccccc1.[I-] (stereo partly drawn) [MES 9236]  % vehicle control          100.05
 4  COc1ccc2c(c1)[C@@](C)(CC#N)C(=O)N2C [MES 9227]  % vehicle control           96.07
 5  COc1ccc2c(c1)c(CCN(C)C)cn2Cc1ccccc1 [MES 9191]  % vehicle control            91.1
 6  CC(Br)C(=O)N(C)c1ccc(O)cc1 (stereo not drawn) [MES 9291, Propionanilde]  % vehicle control              99
 7  COc1ccc2c(c1)[C@](C)(CCN)C(=O)N2C.Cl [MES 9314]  % vehicle control           100.6
 8  CN(C)CC[C@]1(C)C(=O)N(C)c2ccc(O)cc21 [MES 9311]  % vehicle control           99.55
 9  COc1ccc2c(c1)[C@]1(C)CCN(Cc3ccccc3)C1N2 (stereo partly drawn) [MES 9278]  % vehicle control           96.33
10  C=CC1C[N+]2(Cc3ccc(C(F)(F)F)cc3)CCC1CC2[C@H](O)c1ccnc2ccccc12.[Br-] (stereo partly drawn) [MES 9226]  % vehicle control            97.9
11  COc1ccc2c(c1)[C@@]1(C)CCN(C)C1N2C (stereo partly drawn) [MES 9229]  % vehicle control           91.47
12  COc1ccc2c(c1)C1(c3ccccc3)CCNC1N2C (stereo not drawn) [MES 9305]  % vehicle control           94.83
13  COc1ccc2c(c1)[C@]1(C)CCSC1N2C (stereo partly drawn) [MES 9302]  % vehicle control           99.05
14  COc1ccc2c(c1)[C@]1(C)CCN(Cc3ccccc3)C1N2C=O (stereo partly drawn) [MES 9277]  % vehicle control            91.1
15  COC(=O)CC1(C)C(=O)N(C)c2ccc(OC)cc21 (stereo not drawn) [MES 9309]  % vehicle control           101.1
16         CN1C(=O)C(=O)c2ccccc21 [MES 9312]  % vehicle control          106.95
17  COc1ccc2c(c1)[C@@](C)(CCN(C)C)C(=O)N2C [MES 9310]  % vehicle control            97.7
18  COc1ccc2c(c1)C(C)(c1ccccc1)C(=O)N2C (stereo not drawn) [MES 9324]  % vehicle control           98.65
19  CC1C(=O)N(C)c2ccc(O)cc21 (stereo not drawn) [MES 9292, 1,3-Dimethyl-5-hydroxyoxindole]  % vehicle control           104.9
20  COc1ccc2c(c1)[C@]1(C)CCN(C)C1N2Cc1ccccc1 (single isomer, unassigned) [MES 9202]  % vehicle control           90.25
21  CNC(C)c1cccc(OC)c1 (stereo not drawn) [MES 9271]  % vehicle control            94.1
